Listing of recorded melting point by entry.

Structure smiles string: COc1c(OC(C)C)ccc2c1N=C(/C=C(\O)c1cccnc1)N1CCN=C21
melting point: 252 to 253 °C
//
Structure smiles string: Nc1ccccc1C(=O)NC1=Nc2ccccc2C2=NCCN12.O=C(O)C(F)(F)F
melting point: 175 °C (dec.)
//
Structure smiles string: COc1cccc2c1N=C(NC(=O)c1cnccc1C(F)(F)F)N1CCN=C21
melting point: 144 to 145 °C
//
Structure smiles string: Cl.O=C(NC1=Nc2ccccc2C2=NCCN12)c1c[nH]cn1
melting point: 309 to 310 °C
//
Structure smiles string: O=C(NC1=Nc2ccc(Cl)cc2C2=NCCN12)c1cccnc1
melting point: 210 °C
//
Structure smiles string: Cl.O/C(=C\C1=Nc2ccc(O)cc2C2=NCCN12)c1cccnc1
melting point: > 300 °C

Task item: // lookup melting point for O=C(NC1=Nc2ccccc2C2=NCCN12)c1ccc2[nH]nnc2c1.O=C(O)C(F)(F)F
Reply: 252 °C (dec.)

Task item: Next up: Cl.O/C(=C\C1=Nc2c(O)cccc2C2=NCCN12)c1cccnc1
Reply: > 250 °C

Task item: COc1c(OCCCC(=O)N2CCOCC2)ccc2c1N=C(/C=C(\O)c1cccnc1)N1CCN=C21 , same question.
Reply: 234 to 235 °C

Task item: What do you get for COC(=O)CCCOc1c(OC)ccc2c1N=C(/C=C(\O)c1cccnc1)N1CCN=C21.Cl ?
Reply: 178 to 179 °C

Task item: Further, for O=C(NC1=Nc2cc(C(F)(F)F)ccc2C2=NCCN12)c1ccc2[nH]cnc2c1 ?
Reply: > 300 °C

Task item: Next entry: CC(=O)Nc1ccc(/C(O)=C/C2=Nc3cc(N4CCOCC4)ccc3C3=NCCN23)cn1
Reply: 269 °C (dec.)

Task item: Follow-up item: CN1CCN(c2ccc3c(c2)N=C(/C=C(\O)c2ccc4[nH]cnc4c2)N2CCN=C32)CC1.Cl
Reply: > 300 °C

* * *

- Tgt: Recombinant human PI3Kγ (full length human PI3K p110γ) (Homo sapiens, UniProt P48736)
- Construct: full length human PI3K p110γ fused with a His6-tag at the C-terminus; His6 (C); purchased ALEXIS BIOCHEMICALS #201-055-C010; host or cells: S. frugiperda 9 insect cells
- Sequence (P48736 whole entry, the tested form may be a part): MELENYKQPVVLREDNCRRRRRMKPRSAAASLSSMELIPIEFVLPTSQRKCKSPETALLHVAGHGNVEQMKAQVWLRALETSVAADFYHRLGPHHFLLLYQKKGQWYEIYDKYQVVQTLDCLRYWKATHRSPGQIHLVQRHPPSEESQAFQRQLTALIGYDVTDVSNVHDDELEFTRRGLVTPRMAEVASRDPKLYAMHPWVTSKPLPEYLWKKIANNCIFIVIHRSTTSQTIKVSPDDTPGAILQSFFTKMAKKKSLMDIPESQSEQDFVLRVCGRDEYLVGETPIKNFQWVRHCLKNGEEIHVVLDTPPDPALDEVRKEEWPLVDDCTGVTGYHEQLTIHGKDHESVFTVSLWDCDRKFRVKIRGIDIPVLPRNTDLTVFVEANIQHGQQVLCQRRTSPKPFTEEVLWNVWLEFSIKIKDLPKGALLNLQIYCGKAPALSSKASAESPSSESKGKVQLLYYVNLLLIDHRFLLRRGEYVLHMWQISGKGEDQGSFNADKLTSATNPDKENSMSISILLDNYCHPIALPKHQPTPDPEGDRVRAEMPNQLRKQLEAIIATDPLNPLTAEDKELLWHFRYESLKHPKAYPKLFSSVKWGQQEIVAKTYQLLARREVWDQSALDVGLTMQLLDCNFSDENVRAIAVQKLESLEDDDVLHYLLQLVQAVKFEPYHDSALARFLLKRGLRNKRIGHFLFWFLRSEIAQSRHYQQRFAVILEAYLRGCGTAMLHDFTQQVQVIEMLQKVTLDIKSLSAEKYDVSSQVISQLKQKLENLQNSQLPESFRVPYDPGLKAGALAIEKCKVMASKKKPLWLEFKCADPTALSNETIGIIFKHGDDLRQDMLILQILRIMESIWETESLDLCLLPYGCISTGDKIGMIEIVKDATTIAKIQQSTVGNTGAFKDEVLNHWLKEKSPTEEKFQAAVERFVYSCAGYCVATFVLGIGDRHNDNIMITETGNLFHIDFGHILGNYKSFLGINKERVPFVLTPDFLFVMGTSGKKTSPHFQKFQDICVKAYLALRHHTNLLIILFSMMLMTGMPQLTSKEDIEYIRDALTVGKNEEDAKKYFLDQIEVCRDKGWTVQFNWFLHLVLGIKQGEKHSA
- Assay notes: Kinase assay of PI3Kγ (solid-phase lipid kinase assay)
- Type: biochemical
- Protocol conditions: in vitro PI3K-γ inhibitory activity, class symbols; read-out: in vitro PI3K-gamma
- Method: [Determination of IC50 Values of Compounds in Kinase Assay of PI3Kγ] Chemicals and Assay Materials LABORATORIES (Toronto, Canada). […] The plates were subsequently air-dried by incubation for at least 2 hours in a fume hood. […] MicroScint PS™ (PACKARD) scintillation mix was added at 100 μl/well, and radioactivity was counted by using a TopCount™ (PACKARD) scintillation counter. […]
Reported property: IC50

Consider the worked cases shown below.
Structure smiles string: CC(=O)Nc1ccc(C(=O)NC2=Nc3c(Cl)cccc3C3=NCCN23)cn1.Cl
Measurement: < 100 nM
--
Structure smiles string: COc1cc2c(c(OC)c1C)N=C(NC(=O)c1cccnc1C)N1CCN=C21
Measurement: < 100 nM
--
Structure smiles string: CC(=O)Nc1ccc(C(=O)NC2=Nc3ccccc3C3=NCCN23)cn1
Measurement: < 100 nM
--
Structure smiles string: Cl.O=C(NC1=Nc2cc(Cl)ccc2C2=NCCN12)c1cccnc1
Measurement: 100 to 500 nM
--
Structure smiles string: Cl.O=C(NC1=Nc2cc(Cl)ccc2C2=NCCN12)c1cccs1
Measurement: 100 to 500 nM

Task item: Kindly state the measured IC50 obtained for O=C(O)c1cncc(C(=O)NC2=Nc3ccccc3C3=NCCN23)c1 with Recombinant human PI3Kγ (full length human PI3K p110γ) (Homo sapiens, UniProt P48736).
Reply: 100 to 500 nM

Task item: Also COc1cccc2c1N=C(NC(=O)c1cc3cccnc3nc1C)N1CCN=C21 , if possible.
Reply: < 100 nM

Task item: What do you get for O=C(NC1=Nc2cc(N3CCOCC3)ccc2C2=NCCN12)c1cccnc1 ?
Reply: 100 to 500 nM

Task item: Also O=C(NC1=Nc2ccccc2C2=NCCN12)c1c[nH]cn1 , if possible.
Reply: 100 to 500 nM

Task item: Likewise for O=C(NC1=Nc2ccccc2C2=NCCN12)c1cccs1 ?
Reply: 100 to 500 nM

Task item: Next compound up: O=C(NC1=Nc2cc(C(F)(F)F)ccc2C2=NCCN12)c1cccnc1
Reply: 100 to 500 nM

Task item: Another compound to look at: COc1cc2c(c(OC)c1C)N=C(NC(=O)c1cccnc1)N1CCN=C21.Cl
Reply: 100 to 500 nM

Values were extracted from patent US7511041B2.
